Catalogue of Plant response rating, Foxtail, Green readings, one per entry.
System: green foxtail (Setaria viridis)
assay details: Test B preemergence, green foxtail
Type: in vivo
condition notes: 16 g ai/ha, scale 0 to 100
Give only the figure.

{"columns": ["compound", "measured"],
 "data": [
  ["CC1(C)CC(S(=O)(=O)Cc2c(C(F)(F)F)nc3ccsn3c2=O)=NO1 [Compound 16]", 0],
  ["CC1(C)CC(S(=O)(=O)Cc2c(C(F)(F)C(F)(F)F)nc3n(c2=O)CCCC3)=NO1 [Compound 21]", 0],
  ["CC1(C)CC(S(=O)(=O)Cc2c(C(F)(F)Cl)nc3n(c2=O)CCC3)=NO1 [Compound 18]", 30]
]}

Here's the next entry for you.
Reported Plant response rating, Foxtail, Green for CC1(C)CC(S(=O)(=O)Cc2c(C(F)(F)C(F)(F)F)nc3n(c2=O)CCC3)=NO1 [Compound 22] : what is it?
50
